The reported measurements were obtained from patent US20220227873A1.

Target: Human GAL9 protein (Acro Biosystems, Human Gal9 His-tag Cat #LG9-H5244) (human)
Sequence (chain, as listed by the source): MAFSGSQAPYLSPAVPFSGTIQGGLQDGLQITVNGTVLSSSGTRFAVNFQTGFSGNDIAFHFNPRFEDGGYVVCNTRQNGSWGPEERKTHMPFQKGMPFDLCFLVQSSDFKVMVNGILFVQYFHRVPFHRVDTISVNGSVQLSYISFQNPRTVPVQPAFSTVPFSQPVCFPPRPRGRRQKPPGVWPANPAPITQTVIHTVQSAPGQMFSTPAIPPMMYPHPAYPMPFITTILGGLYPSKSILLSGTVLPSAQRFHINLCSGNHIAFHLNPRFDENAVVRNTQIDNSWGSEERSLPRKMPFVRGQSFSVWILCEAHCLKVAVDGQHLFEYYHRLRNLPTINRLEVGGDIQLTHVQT
Experiment: Octet BLI, IgG1 immobilised on biosensor, GAL9 analyte dilution series, global fit (monovalent affinity)
metric-name: Kd (nM)
The reply should be a number in nM, with the unit left off.

Some binders with known Kd results, for comparison:
binder | unit-label | Kd
P9-37 (antibody, IgG1, V domains shown, Tested as bivalent monospecific native human full-length IgG1; also called ABS clone P9-37) VH: EVQLVESGGGLVQPGGSLRLSCAASGFTFWKYGIHWVRQAPGKGLEWVAYIYPAGGITSYADSVKGRFTISADTSKNTAYLQMNSLRAEDTAVYYCARSDYYSGMGMDYWGQGTLVTVSS VL: DIQMTQSPSSLSASVGDRVTITCRASQSVSSAVAWYQQKPGKAPKLLIYSASSLYSGVPSRFSGSRSGTDFTLTISSLQPEDFATYYCQQYYPSPSTFGQGTKVEIKR | nM | 4.54
P9-24 (antibody, IgG1, V domains shown, Tested as bivalent monospecific native human full-length IgG1; also called ABS clone P9-24) VH: EVQLVESGGGLVQPGGSLRLSCAASGFTFSSYFIHWVRQAPGKGLEWVASIYPTSHSTSYADSVKGRFTISADTSKNTAYLQMNSLRAEDTAVYYCARLGYPGVMDYWGQGTLVTVSS VL: DIQMTQSPSSLSASVGDRVTITCRASQSVSSAVAWYQQKPGKAPKLLIYSASSLYSGVPSRFSGSRSGTDFTLTISSLQPEDFATYYCQQVDSRLATFGQGTKVEIKR | nM | 5.41
P9-57 (antibody, IgG1, V domains shown, Tested as bivalent monospecific native human full-length IgG1; also called ABS clone P9-57) VH: EVQLVESGGGLVQPGGSLRLSCAASGFTFSSYYIHWVRQAPGKGLEWVATIYPSGGYTYYADSVKGRFTISADTSKNTAYLQMNSLRAEDTAVYYCARYSYPGVLDYWGQGTLVTVSS VL: DIQMTQSPSSLSASVGDRVTITCRASQSVSSAVAWYQQKPGKAPKLLIYSASSLYSGVPSRFSGSRSGTDFTLTISSLQPEDFATYYCQQSSSFLWTFGQGTKVEIKR | nM | 2.56
P9-50 (antibody, IgG1, V domains shown, Tested as bivalent monospecific native human full-length IgG1; Heavy chain copied as printed: it ends 'SLSPG' without the last K; also called ABS clone P9-50) VH: EVQLVESGGGLVQPGGSLRLSCAASGFTFSSYVIHWVRQAPGKGLEWVALIYSSGGYTQYADSVKGRFTISADTSKNTAYLQMNSLRAEDTAVYYCARVGTTYPSRYLEALDYWGQGTLVTVSS VL: DIQMTQSPSSLSASVGDRVTITCRASQSVSSAVAWYQQKPGKAPKLLIYSASSLYSGVPSRFSGSRSGTDFTLTISSLQPEDFATYYCQQFGSSLPTFGQGTKVEIKR | nM | 1.21
P9-11 (antibody, IgG1, V domains shown, Tested as bivalent monospecific native human full-length IgG1; also called ABS clone P9-11) VH: EVQLVESGGGLVQPGGSLRLSCAASGFTFSSYYIHWVRQAPGKGLEWVAYISPSGGYTYYADSVKGRFTISADTSKNTAYLQMNSLRAEDTAVYYCARGAVLYSSAMDYWGQGTLVTVSS VL: DIQMTQSPSSLSASVGDRVTITCRASQSVSSAVAWYQQKPGKAPKLLIYSASSLYSGVPSRFSGSRSGTDFTLTISSLQPEDFATYYCQQYYPSPSTFGQGTKVEIKR | nM | 6.55

Kd reported for this binder P9-25 (antibody, IgG1, V domains shown, Tested as bivalent monospecific native human full-length IgG1; also called ABS clone P9-25) VH: EVQLVESGGGLVQPGGSLRLSCAASGFTFSSYYIHWVRQAPGKGLEWVASIYPYGSYTYYADSVKGRFTISADTSKNTAYLQMNSLRAEDTAVYYCARLGYSSGMDYWGQGTLVTVSS VL: DIQMTQSPSSLSASVGDRVTITCRASQSVSSAVAWYQQKPGKAPKLLIYSASSLYSGVPSRFSGSRSGTDFTLTISSLQPEDFATYYCQQWAPDLTTFGQGTKVEIKR : 3.48
